Origin of measurements: patent US12077503B2

Test system: pigweed (Amaranthus retroflexus)
Assay: Test A preemergence
Format: in vivo
Settings: Amaranthus retroflexus, pre-emergence, 240 h, Preemergence, 125 g ai/ha; 0 to 100 scale (0 no effect, 100 complete control); read-out: Plant response rating, Pigweed
measured-attribute: pest or weed control at 125 g/ha (%)

{"compound": "CN1C[C@H](c2ccc(C(F)(F)F)nc2)[C@@H](C(=O)Nc2ccc(F)c(F)c2F)C1=O", "measured-attribute": "pest or weed control at 125 g/ha", "units-of-measure": "%", "meas-value": 90}
{"compound": "CN1C[C@H](c2ccc(Cl)cc2)[C@@H](C(=O)Nc2cccc(F)n2)C1=O", "measured-attribute": "pest or weed control at 125 g/ha", "units-of-measure": "%", "meas-value": 30}
{"compound": "CN1C[C@H](c2ccc(C(F)(F)F)cc2)[C@@H](C(=O)Nc2cccc(C#N)c2F)C1=O", "measured-attribute": "pest or weed control at 125 g/ha", "units-of-measure": "%", "meas-value": 90}
{"compound": "CN1C[C@H](c2ccc(C(F)(F)F)cc2)[C@@H](C(=O)Nc2cccnc2F)C1=O", "measured-attribute": "pest or weed control at 125 g/ha", "units-of-measure": "%", "meas-value": 90}
{"compound": "CN1C[C@H](c2ccc3c(c2)CCO3)[C@@H](C(=O)Nc2ccccc2F)C1=O", "measured-attribute": "pest or weed control at 125 g/ha", "units-of-measure": "%", "meas-value": 0}
{"compound": "COc1ccc([C@H]2CNC(=O)[C@@H]2C(=O)Nc2cccc(F)c2F)cc1", "measured-attribute": "pest or weed control at 125 g/ha", "units-of-measure": "%", "meas-value": 0}
{"compound": "O=C1NCC(c2ccccc2)C1C(=O)Nc1ccc(C(F)(F)F)cc1 (stereo not shown)", "measured-attribute": "pest or weed control at 125 g/ha", "units-of-measure": "%", "meas-value": 0}
